Reference source: paper PMC4991794

Target: SenRc (His-tagged response regulator) (Streptomyces coelicolor A3(2))
Sequence: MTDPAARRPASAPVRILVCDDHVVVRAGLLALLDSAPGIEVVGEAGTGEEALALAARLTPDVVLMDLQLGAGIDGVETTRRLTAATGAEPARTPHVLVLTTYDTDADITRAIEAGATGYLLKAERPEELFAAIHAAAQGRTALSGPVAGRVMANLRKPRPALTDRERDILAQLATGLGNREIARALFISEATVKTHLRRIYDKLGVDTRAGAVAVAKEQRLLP
Assay: EMSA
Conditions: 10 mM Tris-HCl pH 7.5, 5% glycerol, 40 mM KCl, 1 mM MgCl2, 2 mM DTT, 10 ug/ml BSA; 30 C, 15 min; 30 ul with 20 ng or 25 ng (Methods) DNA; 7% …
quantity.kind: binding

Observe how each entry below is paired with its result.
GAGTGGCGGCCATGGTGTGACACGTCCTTTGGAGACAGGTGGAAACGGCTCTGACCTGCGCGCATGGCGCATGGCACTACGTGGGCATACGTGAGACACGCGTGCGCGTCATTGCGCGGGAGCGAGGTGAATGCGGGGAATCCGGAGGTGCTGGAGAGTGCTCTCTTCAAGCTTGACAGATGGCGCTGGACATGCGGCCGAGGTCGACGTG (double strand) [up-SCO6102*] = no binding
CACCGGATACCTGTTGAAGGCCGAACGCCCCGAGGAGCTGTTCGCGGCCATCCACGCCGCCGCCCAGGGCCGTACGGCACTGTCCGGGCCGGTCGCCGGCCGGGTCATGGCCAACCTGCGCAAGCCGCGCCCCGCCCTCACCGACCGCGAGCGCGACATCCTGGCCCAGCTCGCCACCGGGCTCGGCAACCGGGAGATCGCCCGCGCCCTGTTCATCAG (double strand) [in-senRc] = no binding
GAGGAAGCCCGGTGCGAATCCGGCGCGGTCCCGCCACTGTGACCGGGGACAGGATCCCCGGGAGCCAGGAACTCTCGCCGCCGTGCTCTTCGAACCAGGGCGCGGACACCCTGAGTGAGGACCTATCGCCATGCGCGGCTGCCGTTCCGGGCTCACCAGCGACACGCTTCGACTTCCCCTTCCCACGGCCGGTTGAGCCGTGCGTGCC (double strand) [up-SCO1847] = binds
CACGTCGACCTCGGCCGCATGTCCAGCGCCATCTGTCCGGGCCGCTGAGAGCACTCTCCAGCACCTCCGGATTCCCCGCATTCACCTCGCTCCCGCGCAATGACGCGCACGCGTGTCTCACGTATGCCCACGTAGTGCCATGCGCCATGCGCGCAGGTCAGAGCCGTTTCCACCTGTCTCCAAAGGACGTGTCACACCATGGCCGCCACTC (double strand) [up-SCO6102] = binds
GAAAGCATGGGTGTTAAAGTCGTGTGCATGAAGCAAGCAGCCGCGCCCACCACACCACAGCGCCTCGCGCTCGTGGCGCGCCTGCACGTGGACCTCTGCCGGTGCGCGTCCGCGAACTGTCGCCCCTGACGTTCCCCCCTCACCAGTCGTCCCCACGTCAGCTCAGCGCGTCCCATCCCGCGTCCCGTCCCCCTACGGAGCATGTCCGTGTG (double strand) [up-SCO4498] = binds
GTTCACGTCCATGTCTCCAGGTTAGGCTCGTCGAAGATCAAGCTTGAGCCATCCGGGTGGGACCTCGAACACTCGTCGCCCAGAGTTCACCTTGGAGCCAGGGACGGTTCATTTGGGGTGCCGGAAACGGACGCGTACAGGCCGGAACGTGTAAGCGTGGGGGCACGGCGGGGGGCGCGAAGCCGTCTTCGAGCCCCCGAAACGGACGTACGAG (double strand) [up-SCO4229*] = no binding
GGCACGTGCGCGCACGCCTGTCCAGTCCGAGGACCTGCCGACAGTGCGCCCGGCCGCCCTGGCCCGGGTGCCATGACGTCCGGGCCTCGCGGAGTGGGCCGGTGGACGCGACGCCGCGTGCGCTCGTGAGCTGCCCCCTGCCCTCCCTCCGCCGGGCCCCGTGCCGAGCGAGGGAGTGCTCCACGTGACCATCGCGCCAG (double strand) [up-SCO5226] = binds

# context switch: different sequence, same binding
Incoming: Consider the sequence CTCGTACGTCCGTTTCGGGGGCTCGAAGACGGCTTCGCGCCCCCCGCCGTGCCCCCACGCTTACACGTTCCGGCCTGTACGCGTCCGTTTCCGGCACCCCAAATGAACCGTCCCTGGCTCCAAGGTGAACTCTGGGCGACGAGTGTTCGAGGTCGCACCCGGATGGCTGGGGCCGGACGGTTCGCCGTGCCTAACCTGGAGACATGGACGTGAAC (double strand) [up-SCO4229] . State its measured binding.
Outgoing: binds
